pKi: −log10 of the molar value.
Record type: pKi measurement. Applies to: D(3) dopamine receptor (Homo sapiens, UniProt P35462)
Parameter: pKi

molecule=COc1ccccc1N1CCN(CCCCNC(=O)/C=C/c2ccc(C(F)(F)F)cc2)CC1 parameter=pKi result_number=8.67
molecule=COc1ccccc1N1CCN(CCCCNC(=O)/C=C/c2ccccc2I)CC1 parameter=pKi result_number=9.12
molecule=COc1ccccc1N1CCN(CCCCNC(=O)/C=C/c2ccc(OCc3ccccc3)cc2)CC1 parameter=pKi result_number=7.71
molecule=COc1ccccc1N1CCN(CCCCNC(=O)c2sc3ccccc3c2Cl)CC1 parameter=pKi result_number=8.17
molecule=COc1ccccc1N1CCN(Cc2ccc(CNC(=O)c3ccc4ccccc4c3)cc2)CC1 parameter=pKi result_number=7.40
molecule=COc1ccccc1N1CCN(CCCCNC(=O)/C=C/c2ccc(F)cc2)CC1 parameter=pKi result_number=9.16
molecule=COc1ccccc1N1CCN(CCCCNC(=O)c2ccc(C(=O)c3ccccc3)cc2)CC1 parameter=pKi result_number=8.60
molecule=COc1ccccc1N1CCN(CCCCNC(=O)/C=C/c2ccco2)CC1 parameter=pKi result_number=9.22
molecule=COc1ccccc1N1CCN(CCCCNC(=O)c2ccc3ccccc3n2)CC1 parameter=pKi result_number=8.18
molecule=COc1ccccc1N1CCN(Cc2cccc(CNC(=O)c3ccc4ccccc4c3)c2)CC1 parameter=pKi result_number=7.00
molecule=COc1ccccc1N1CCN(CCCCNC(=O)Cc2ccc3ccccc3c2)CC1 parameter=pKi result_number=7.49
molecule=COc1ccccc1N1CCN(CCCCNC(=O)c2cc3ccccc3oc2=O)CC1 parameter=pKi result_number=8.74
molecule=COc1ccccc1N1CCN(CCCCNC(=O)c2ccccc2I)CC1 parameter=pKi result_number=8.11
molecule=COc1ccccc1N1CCN(CCCNC(=O)c2ccccc2I)CC1 parameter=pKi result_number=6.67
molecule=COc1ccccc1N1CCN(CCCCNC(=O)/C=C/c2cccc3c2OCO3)CC1 parameter=pKi result_number=9.26
molecule=COc1ccccc1N1CCN(CCCCNC(=O)/C=C/c2ccccc2)CC1 parameter=pKi result_number=9.48
molecule=COc1ccccc1N1CCN(CCCCNC(=O)/C=C/c2ccc3c(c2)OCO3)CC1 parameter=pKi result_number=9.00
molecule=COc1ccccc1N1CCN(Cc2ccccc2CNC(=O)/C=C/c2ccccc2)CC1 parameter=pKi result_number=6.49
molecule="COc1ccccc1N1CCN(C2CC3CC(NC4CC5CC(N6CCN(c7ccccc7OC)CC6)CC5C4)CC3C2)CC1 (stereo unspecified)" parameter=pKi result_number=6.45
molecule=COc1ccccc1N1CCN(CCCCN2C(=O)c3cccc4cccc(c34)C2=O)CC1 parameter=pKi result_number=7.54
molecule=COc1ccccc1N1CCN(CCCNC(=O)c2ccc(I)cc2)CC1 parameter=pKi result_number=6.40

====

Here's a batch of compounds along with measured Ki for D(3) dopamine receptor (Homo sapiens).
Parameter: Ki (nM)

compound="COc1ccccc1N1CCN(C2CC3CC(NC(=O)c4ccc5ccccc5c4)CC3C2)CC1 (stereo not given)" measurement_units=nM result_number=37.2
compound=COc1ccccc1N1CCN(CCCCNC(=O)/C=C/c2cccc(Oc3ccccc3)c2)CC1 measurement_units=nM result_number=19.5
compound=COc1ccccc1N1CCN(CCCCNC(=O)/C=C/c2ccsc2)CC1 measurement_units=nM result_number=0.64
compound=COc1ccccc1N1CCN(CCCCN2C(=O)c3cc4ccccc4cc3C2=O)CC1 measurement_units=nM result_number=23.3
compound=COc1ccccc1N1CCN(CCCCNC(=O)/C=C/c2cccnc2)CC1 measurement_units=nM result_number=0.5
compound=COc1ccccc1N1CCN(CCCCNC(=O)/C=C/c2cccs2)CC1 measurement_units=nM result_number=0.59
compound=COc1ccccc1N1CCN(CCCCNC(=O)c2coc3ccccc3c2=O)CC1 measurement_units=nM result_number=3.3
compound=COc1ccccc1N1CCN(CCCCNC(=O)/C=C/c2cccc(C(F)(F)F)c2)CC1 measurement_units=nM result_number=4.1
compound=COc1ccccc1N1CCN(CCCNC(=O)Cc2ccc3ccccc3c2)CC1 measurement_units=nM result_number=140
compound=COc1ccccc1N1CCN(CCCCNC(=O)/C=C/c2ccc(-c3ccccc3)cc2)CC1 measurement_units=nM result_number=16
compound=COc1ccccc1N1CCN(CCCCNC(=O)/C=C/C=C/c2ccccc2)CC1 measurement_units=nM result_number=1.5
compound=COc1ccccc1N1CCN(CCCCNC(=O)/C=C/c2ccc(C(C)(C)C)cc2)CC1 measurement_units=nM result_number=10.2
compound=COc1ccccc1N1CCN(CCCCNC(=O)c2ccc(C(C)(C)C)cc2)CC1 measurement_units=nM result_number=7.99
compound=COc1ccccc1/C=C/C(=O)NCCCCN1CCN(c2ccccc2OC)CC1 measurement_units=nM result_number=0.56
compound=COc1ccccc1N1CCN(CCCCNC(=O)c2nccc3ccccc23)CC1 measurement_units=nM result_number=9.62
compound=COc1ccccc1N1CCN(CCCCNC(=O)/C=C/c2ccc(Oc3ccccc3)cc2)CC1 measurement_units=nM result_number=10.1
compound=COc1ccccc1N1CCN(CCCCNC(=O)c2ccc(-c3ccc(Cl)cc3)o2)CC1 measurement_units=nM result_number=6.3
compound=COc1ccccc1N1CCN(CCCCNC(=O)CCc2ccccc2)CC1 measurement_units=nM result_number=4.8
compound="COc1ccccc1N1CCN(CCCCNC(=O)C2CC2c2ccccc2)CC1 (stereo not given)" measurement_units=nM result_number=15.5
compound=COc1ccccc1N1CCN(CCCCNC(=O)C2(c3ccc(Cl)cc3)CCCC2)CC1 measurement_units=nM result_number=42
